All values here come from ChEMBL document CHEMBL2321864.

Biological target: Tyrosine-protein kinase ABL2 (Homo sapiens, UniProt P42684)
Sequence (P42684 whole entry): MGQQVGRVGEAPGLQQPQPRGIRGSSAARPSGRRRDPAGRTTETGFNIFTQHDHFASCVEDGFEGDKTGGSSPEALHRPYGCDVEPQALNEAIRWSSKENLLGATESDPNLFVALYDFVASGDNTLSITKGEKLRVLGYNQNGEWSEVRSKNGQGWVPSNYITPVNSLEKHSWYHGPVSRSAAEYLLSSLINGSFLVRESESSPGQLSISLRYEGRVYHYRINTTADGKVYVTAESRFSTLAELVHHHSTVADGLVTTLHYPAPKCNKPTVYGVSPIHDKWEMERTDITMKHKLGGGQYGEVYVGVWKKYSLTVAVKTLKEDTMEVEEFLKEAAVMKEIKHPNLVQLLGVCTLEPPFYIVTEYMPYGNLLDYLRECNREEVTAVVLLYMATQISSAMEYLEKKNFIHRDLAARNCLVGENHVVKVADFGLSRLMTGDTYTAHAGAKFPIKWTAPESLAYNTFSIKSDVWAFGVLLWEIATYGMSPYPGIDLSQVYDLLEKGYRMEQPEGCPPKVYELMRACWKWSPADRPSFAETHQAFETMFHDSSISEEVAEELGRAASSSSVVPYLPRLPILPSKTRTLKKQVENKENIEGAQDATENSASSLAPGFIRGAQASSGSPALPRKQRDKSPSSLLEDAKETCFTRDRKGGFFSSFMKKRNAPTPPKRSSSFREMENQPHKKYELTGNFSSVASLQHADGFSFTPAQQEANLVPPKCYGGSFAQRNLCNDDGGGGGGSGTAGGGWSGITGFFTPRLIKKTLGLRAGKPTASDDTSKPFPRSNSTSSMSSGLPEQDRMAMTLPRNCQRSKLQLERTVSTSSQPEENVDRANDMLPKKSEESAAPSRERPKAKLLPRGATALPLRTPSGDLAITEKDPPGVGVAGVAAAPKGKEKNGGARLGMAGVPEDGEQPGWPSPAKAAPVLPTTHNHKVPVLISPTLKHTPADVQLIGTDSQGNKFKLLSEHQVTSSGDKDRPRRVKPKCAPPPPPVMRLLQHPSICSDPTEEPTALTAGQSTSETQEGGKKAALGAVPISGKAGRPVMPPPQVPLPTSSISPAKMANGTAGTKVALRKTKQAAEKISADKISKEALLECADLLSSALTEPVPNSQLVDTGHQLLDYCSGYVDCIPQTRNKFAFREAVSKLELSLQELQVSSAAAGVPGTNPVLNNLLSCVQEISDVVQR
Assay: Inhibition of Abl2 kinase (unknown origin) using Tyr 6 peptide as substrate assessed as residual enzyme activity after every 10 secs measured for 10 mins
observed property: pIC50
Expect pIC50 as a plain number equal to -log10 of the molar concentration.

Here is how some compounds turned out for pIC50.
compound smiles	pIC50
CN1CCN(Cc2ccc(NC(=O)Nc3cc(C#Cc4cncc5nccn45)n(C)n3)cc2C(F)(F)F)CC1	7.82
CN1CCN(Cc2ccc(NC(=O)Nc3cc(C#Cc4cnc5cccnn45)n(C)n3)cc2C(F)(F)F)CC1	8.22
CN1CCN(Cc2ccc(NC(=O)Nc3cc(C#Cc4cnc5cnccn45)n(C)n3)cc2C(F)(F)F)CC1	8.00

Looking up Cc1ccc(C(=O)Nc2ccc(CN3CCN(C)CC3)c(C(F)(F)F)c2)cc1C#Cc1cncc2nccn12 , I see its pIC50 listed as 9.00

---

Biological target: Mitogen-activated protein kinase 14 (Homo sapiens, UniProt Q16539)
Sequence (Q16539 whole entry): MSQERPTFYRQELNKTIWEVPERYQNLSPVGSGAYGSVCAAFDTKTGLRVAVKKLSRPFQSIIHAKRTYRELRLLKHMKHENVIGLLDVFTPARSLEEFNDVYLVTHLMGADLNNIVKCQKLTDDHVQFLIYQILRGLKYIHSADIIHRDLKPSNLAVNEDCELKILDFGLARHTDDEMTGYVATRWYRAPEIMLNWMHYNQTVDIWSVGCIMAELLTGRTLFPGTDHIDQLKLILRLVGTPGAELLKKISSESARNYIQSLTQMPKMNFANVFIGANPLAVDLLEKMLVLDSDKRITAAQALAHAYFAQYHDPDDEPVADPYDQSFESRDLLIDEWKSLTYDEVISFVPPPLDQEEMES
Experiment: Inhibition of P38alpha (unknown origin)
observed property: pIC50
Expect pIC50 as a plain number equal to -log10 of the molar concentration.

compound smiles	tested on	pIC50
CN1CCN(Cc2ccc(NC(=O)Nc3cc(C#Cc4cnc5cccnn45)n(C)n3)cc2C(F)(F)F)CC1	Mitogen-activated protein kinase 14 (Homo sapiens, UniProt Q16539)	7.62
Cc1ccc(C(=O)Nc2ccc(CN3CCN(C)CC3)c(C(F)(F)F)c2)cc1C#Cc1cncc2nccn12	Mitogen-activated protein kinase 14 (Homo sapiens, UniProt Q16539)	7.37

Looking up CN1CCN(Cc2ccc(NC(=O)Nc3cc(C#Cc4cncc5nccn45)n(C)n3)cc2C(F)(F)F)CC1 , I see its pIC50 listed as 7.46

Looking up CN1CCN(Cc2ccc(NC(=O)Nc3cc(C#Cc4cnc5cnccn45)n(C)n3)cc2C(F)(F)F)CC1 , I see its pIC50 listed as 7.46

---

Assay: Apparent permeability of the compound by PAMPA assay
Type: ADME
observed property: Papp
Form field: result (number plus unit)

compound smiles	Papp
CN1CCN(Cc2ccc(NC(=O)Nc3cc(C#Cc4cnc5cccnn45)n(C)n3)cc2C(F)(F)F)CC1	2 ×10⁻⁶ cm/s
CN1CCN(Cc2ccc(NC(=O)Nc3cc(C#Cc4cncc5nccn45)n(C)n3)cc2C(F)(F)F)CC1	0.1 ×10⁻⁶ cm/s
Cc1ccc(C(=O)Nc2ccc(CN3CCN(C)CC3)c(C(F)(F)F)c2)cc1C#Cc1cncc2nccn12	26 ×10⁻⁶ cm/s

Lab note: next compound to report on.
Looking up CN1CCN(Cc2ccc(NC(=O)Nc3cc(C#Cc4cnc5cnccn45)n(C)n3)cc2C(F)(F)F)CC1 , I see its Papp listed as 0.2 ×10⁻⁶ cm/s

---

Molecular target: Tyrosine-protein kinase ABL1 (Homo sapiens, UniProt P00519)
Sequence (P00519 whole entry): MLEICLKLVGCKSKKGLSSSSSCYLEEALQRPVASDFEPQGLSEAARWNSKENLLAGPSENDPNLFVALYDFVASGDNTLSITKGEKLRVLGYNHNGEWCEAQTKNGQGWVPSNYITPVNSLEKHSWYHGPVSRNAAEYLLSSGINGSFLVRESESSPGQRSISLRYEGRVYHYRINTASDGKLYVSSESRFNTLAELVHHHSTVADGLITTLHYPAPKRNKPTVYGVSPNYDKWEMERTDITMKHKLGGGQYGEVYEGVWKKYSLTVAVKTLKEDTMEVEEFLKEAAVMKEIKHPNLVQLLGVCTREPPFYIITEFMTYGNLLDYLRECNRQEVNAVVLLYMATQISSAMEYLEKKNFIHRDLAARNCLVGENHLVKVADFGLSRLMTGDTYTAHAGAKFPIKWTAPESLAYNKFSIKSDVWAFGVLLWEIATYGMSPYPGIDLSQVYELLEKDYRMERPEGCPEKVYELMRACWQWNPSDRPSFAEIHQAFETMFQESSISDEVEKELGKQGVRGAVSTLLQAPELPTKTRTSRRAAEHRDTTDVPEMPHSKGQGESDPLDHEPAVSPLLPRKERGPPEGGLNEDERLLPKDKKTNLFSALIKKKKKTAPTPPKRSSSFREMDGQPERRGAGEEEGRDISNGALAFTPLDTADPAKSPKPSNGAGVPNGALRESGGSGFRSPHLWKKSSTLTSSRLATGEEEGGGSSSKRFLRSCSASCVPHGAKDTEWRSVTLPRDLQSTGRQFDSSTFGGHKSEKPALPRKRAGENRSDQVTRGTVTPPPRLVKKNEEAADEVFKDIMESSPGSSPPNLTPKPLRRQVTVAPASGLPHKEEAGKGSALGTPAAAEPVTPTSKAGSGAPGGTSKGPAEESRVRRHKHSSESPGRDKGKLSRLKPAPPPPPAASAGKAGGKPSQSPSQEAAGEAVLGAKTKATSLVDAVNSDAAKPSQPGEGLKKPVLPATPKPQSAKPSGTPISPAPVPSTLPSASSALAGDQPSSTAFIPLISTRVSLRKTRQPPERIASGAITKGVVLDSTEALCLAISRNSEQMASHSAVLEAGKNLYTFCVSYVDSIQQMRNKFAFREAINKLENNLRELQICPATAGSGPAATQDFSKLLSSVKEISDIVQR
Assay: Inhibition of Abl1 kinase (unknown origin) using Tyr 6 peptide as substrate assessed as residual enzyme activity after every 10 secs measured for 10 mins
observed property: IC50 (nM)
# unit: nM | format: bare number

Looking up CN1CCN(Cc2ccc(NC(=O)Nc3cc(C#Cc4cncc5nccn45)n(C)n3)cc2C(F)(F)F)CC1 , I see its IC50 listed as 12

Looking up CN1CCN(Cc2ccc(NC(=O)Nc3cc(C#Cc4cnc5cnccn45)n(C)n3)cc2C(F)(F)F)CC1 , I see its IC50 listed as 7

Looking up Cc1ccc(C(=O)Nc2ccc(CN3CCN(C)CC3)c(C(F)(F)F)c2)cc1C#Cc1cncc2nccn12 , I see its IC50 listed as 1

Looking up CN1CCN(Cc2ccc(NC(=O)Nc3cc(C#Cc4cnc5cccnn45)n(C)n3)cc2C(F)(F)F)CC1 , I see its IC50 listed as 12
